Examples of compounds with documented pIC50 follow.
- Tested on: HCT-116
- EXPERIMENTAL_DETAILS: Antiproliferative activity against human HCT-116 cells assessed as inhibition of cell growth incubated for 48 hrs by MTT assay
- Type: functional, cell-based
- TEST_PARAMETERS: HCT-116, 48 h
pIC50 is defined as minus the log10 of a concentration measured in mol/L.

COMPOUND: COc1cc2c(c(OC)c1OC)-c1ccc(OC)c(=O)cc1[C@@H](NC(C)=O)CC2 [COLCHICINE]
READOUT_NUMBER: 7.96
//
COMPOUND: COc1cc(-c2nccn3cc(-c4ccc(N)cc4)nc23)cc(OC)c1OC
READOUT_NUMBER: 6.80
//
COMPOUND: COc1ccc(-c2cn3ccnc(-c4cc(OC)c(OC)c(OC)c4)c3n2)cc1
READOUT_NUMBER: 6.72
//
COMPOUND: COc1cc(C(=O)c2cn3cc(Br)nc(Cl)c3n2)cc(OC)c1OC
READOUT_NUMBER: 5.79

Lookup: Endpoint output: pIC50 of "COc1cc(-c2nccn3cc(-c4ccc(O)cc4)nc23)cc(OC)c1OC" . Value?
Found: 6.05

Lookup: Endpoint output: pIC50 of "COc1ccc(-c2cn3ccnc(-c4cc(OC)c(OC)c(OC)c4)c3n2)cc1N" . Value?
Found: 6.91

Lookup: Endpoint output: pIC50 of "COc1cc(C(=O)c2cn3ccnc(-c4ccccc4)c3n2)cc(OC)c1OC" . Value?
Found: 5.71

Lookup: Endpoint output: pIC50 of "COc1cc(-c2nccn3cc(-c4ccccc4)nc23)cc(OC)c1OC" . Value?
Found: 6.58

Lookup: Endpoint output: pIC50 of "COc1cc(-c2nccn3cc(-c4ccc(F)cc4)nc23)cc(OC)c1OC" . Value?
Found: 6.58

Lookup: Endpoint output: pIC50 of "COc1cc(-c2nccn3cc(-c4ccc(C)cc4)nc23)cc(OC)c1OC" . Value?
Found: 7.13

Lookup: Endpoint output: pIC50 of "COc1cc(-c2nccn3cc(-c4ccc(Cl)cc4)nc23)cc(OC)c1OC" . Value?
Found: 6.45
